Origin of measurements: patent US20250129074A1

# experimental-protocol: Pharmacokinetic evaluation in SD rats
# run-conditions: both sexes, rat, in vivo, po, i.g., 2.0 mg/kg, read-out: Clearance rate CL/F
observation-type: CL/F (mL/min/kg)
// return numeric value only (unit: mL/min/kg, not printed)

Dear colleague, I am looking for the recorded CL/F of the following compound: C[C@H]1CC2(CCN(c3ccc(C(=O)N4CCC5(CC4)CC(N4CCN(c6ccc(N7CCC(=O)NC7=O)cc6)CC4)C5)cc3)CC2)CN1c1ccc(C#N)c(Cl)c1 [Example 28]
108

Dear colleague, I am looking for the recorded CL/F of the following compound: C[C@H]1CC2(CCN(c3ccc(C(=O)N4CCC(CN5CCN(c6cccc(NC7CCC(=O)NC7=O)c6)CC5)CC4)nc3)CC2)CN1c1ccc(C#N)c(Cl)c1 (stereo partly shown) [Example 12]
139

Dear colleague, I am looking for the recorded CL/F of the following compound: C[C@H]1CC2(CCN(c3ccc(C(=O)N4CCC(CN5CCN(c6cccc(NC7CCC(=O)NC7=O)c6)CC5)CC4)cc3)CC2)CN1c1ccc(C#N)c(Cl)c1 (stereo partly shown) [Example 11]
60.2

Dear colleague, I am looking for the recorded CL/F of the following compound: C[C@H]1CC2(CCN(c3ccc(C(=O)N4CCC(CN5CCN(c6cc(NC7CCC(=O)NC7=O)ccc6F)CC5)CC4)cc3)CC2)CN1c1ccc(C#N)c(Cl)c1 (stereo partly shown) [Example 23]
51.2

----------
# experimental-protocol: Pharmacokinetic evaluation in SD rats
# run-conditions: both sexes, rat, in vivo, po, i.g., 2.0 mg/kg, read-out: Area under curve AUC0-t
Could you please report measured AUC(0-t) for the items listed next?
A complete answer gives the number followed by the unit.

Dear colleague, I am looking for the recorded AUC(0-t) of the following molecule: C[C@H]1CC2(CCN(c3ccc(C(=O)N4CCC5(CC4)CC(N4CCN(c6ccc(N7CCC(=O)NC7=O)cc6)CC4)C5)cc3)CC2)CN1c1ccc(C#N)c(Cl)c1 [Example 28]
315 ng·h/mL

Dear colleague, I am looking for the recorded AUC(0-t) of the following molecule: C[C@H]1CC2(CCN(c3ccc(C(=O)N4CCC(CN5CCN(c6cc(NC7CCC(=O)NC7=O)ccc6F)CC5)CC4)cc3)CC2)CN1c1ccc(C#N)c(Cl)c1 (stereo partly shown) [Example 23]
703 ng·h/mL

Dear colleague, I am looking for the recorded AUC(0-t) of the following molecule: C[C@H]1CC2(CCN(c3ccc(C(=O)N4CCC(CN5CCN(c6cccc(NC7CCC(=O)NC7=O)c6)CC5)CC4)cc3)CC2)CN1c1ccc(C#N)c(Cl)c1 (stereo partly shown) [Example 11]
644 ng·h/mL

Dear colleague, I am looking for the recorded AUC(0-t) of the following molecule: C[C@H]1CC2(CCN(c3ccc(C(=O)N4CCC(CN5CCN(c6cccc(NC7CCC(=O)NC7=O)c6)CC5)CC4)nc3)CC2)CN1c1ccc(C#N)c(Cl)c1 (stereo partly shown) [Example 12]
304 ng·h/mL

----------
# Tested on: LNCaP cells
# experimental-protocol: Inhibition of LNCaP proliferation (CellTiter-Glo)
# Format: cell-based
# run-conditions: Homo sapiens, 144 h, 0.1 nM R1881, six days, read-out: Max (maximum proliferation inhibition rate)
Kindly return fulfilled if reported Emax is no lower than 60%; return not fulfilled if it is lower.

I'd appreciate it if you could say whether C[C@H]1CC2(CCN(c3ccc(C(=O)N4CCC(N5CCN(c6cccc(NC7CCC(=O)NC7=O)c6)CC5)CC4)cc3)CC2)CN1c1ccc(C#N)c(Cl)c1 (some centres unmarked) has Emax at least equal to 60%.
fulfilled

I'd appreciate it if you could say whether C[C@H]1CC2(CCN(c3ccc(C(=O)N4CCC(CN5CCN(c6cccc(NC7CCC(=O)NC7=O)c6)CC5)CC4)cn3)CC2)CN1c1ccc(C#N)c(Cl)c1 (some centres unmarked) has Emax at least equal to 60%.
fulfilled

I'd appreciate it if you could say whether C[C@H]1CC2(CCN(c3ccc(C(=O)N4CCC(CN5CCN(c6cccc(NC7CCC(=O)NC7=O)c6)CC5)CC4)nn3)CC2)CN1c1ccc(C#N)c(Cl)c1 (some centres unmarked) has Emax at least equal to 60%.
not fulfilled

I'd appreciate it if you could say whether `C[C@H]1CC2(CCN(c3ccc(C(=O)N4CCC5(CC4)CC(N4CCN(c6ccc(N7CCC(=O)NC7=O)cc6)CC4)C5)cn3)CC2)CN1c1ccc(C#N)c(Cl)c1` has Emax at least equal to 60%.
not fulfilled

I'd appreciate it if you could say whether `C[C@H]1CC2(CCN(c3ccc(C(=O)N4CCC(N5CCC(N6CCN(c7ccc(N8CCC(=O)NC8=O)cc7)CC6)CC5)CC4)cc3)CC2)CN1c1ccc(C#N)c(Cl)c1` has Emax at least equal to 60%.
not fulfilled

I'd appreciate it if you could say whether C[C@H]1CC2(CCN(c3ccc(C(=O)N4CCC(N5CCN(c6ccc(C(=O)NC7CCC(=O)NC7=O)nc6)CC5)CC4)cc3)CC2)CN1c1ccc(C#N)c(Cl)c1 (some centres unmarked) has Emax at least equal to 60%.
fulfilled

I'd appreciate it if you could say whether C[C@H]1CC2(CCN(c3ccc(C(=O)N4CCC(N5CCN(c6ccc(C(=O)NC7CCC(=O)NC7=O)c(F)c6)CC5)CC4)cc3)CC2)CN1c1ccc(C#N)c(Cl)c1 (some centres unmarked) has Emax at least equal to 60%.
fulfilled

I'd appreciate it if you could say whether C[C@H]1CC2(CCN(c3ccc(C(=O)N4CCC(CN5CCN(c6cc(NC7CCC(=O)NC7=O)ccn6)CC5)CC4)cc3)CC2)CN1c1ccc(C#N)c(Cl)c1 (some centres unmarked) has Emax at least equal to 60%.
not fulfilled

I'd appreciate it if you could say whether C[C@H]1CC2(CCN(c3cnc(C(=O)N4CCC(CN5CCN(c6cccc(NC7CCC(=O)NC7=O)c6)CC5)CC4)cn3)CC2)CN1c1ccc(C#N)c(Cl)c1 (some centres unmarked) has Emax at least equal to 60%.
fulfilled

I'd appreciate it if you could say whether `C[C@H]1CC2(CCN(c3ccc(C(=O)N4CCC5(CC4)CC(N4CCN(c6ccc(N7CCC(=O)NC7=O)cc6)CC4)C5)c(F)c3)CC2)CN1c1ccc(C#N)c(Cl)c1` has Emax at least equal to 60%.
not fulfilled

----------
Could you please report measured Emax for the items listed next?
# System: LNCaP cells
# experimental-protocol: Inhibition of LNCaP proliferation (CellTiter-Glo)
# Assay type: cell-based
# run-conditions: Homo sapiens, 144 h, 0.1 nM R1881, six days, read-out: Max (maximum proliferation inhibition rate)
// return numeric value only (unit: %, not printed)

Could you share what Emax was measured for `C[C@H]1CC2(CCN(c3ccc(C(=O)N4CCC(CN5CC(N6CCN(c7ccc(N8CCC(=O)NC8=O)cc7)CC6)C5)CC4)cc3)CC2)CN1c1ccc(C#N)c(Cl)c1` , tested on LNCaP cells?
31

Could you share what Emax was measured for C[C@H]1CC2(CCN(c3ccc(C(=O)N4CCN(CC(=O)Nc5cccc(NC6CCC(=O)NC6=O)c5)CC4)cc3)CC2)CN1c1ccc(C#N)c(Cl)c1 (stereo partly shown) , tested on LNCaP cells?
50

Could you share what Emax was measured for C[C@H]1CC2(CCN(c3ccc(C(=O)N4CCC(CN5CCN(c6cc(NC7CCC(=O)NC7=O)ccc6F)CC5)CC4)cc3)CC2)CN1c1ccc(C#N)c(Cl)c1 (stereo partly shown) , tested on LNCaP cells?
76

Could you share what Emax was measured for `C[C@H]1CC2(CCN(c3ccc(C(=O)N4CCC(N5CC(N6CCN(c7ccc(N8CCC(=O)NC8=O)cc7)CC6)C5)CC4)cc3)CC2)CN1c1ccc(C#N)c(Cl)c1` , tested on LNCaP cells?
53

Could you share what Emax was measured for C[C@H]1CC2(CCN(c3ccc(C(=O)N4CCC(CN5CCC(c6ccc(NC7CCC(=O)NC7=O)cc6)CC5)CC4)cc3)CC2)CN1c1ccc(C#N)c(Cl)c1 (stereo partly shown) , tested on LNCaP cells?
63

Could you share what Emax was measured for C[C@H]1CC2(CCN(c3ccc(C(=O)N4CCC(CN5CCN(c6ccc(C(=O)NC7CCC(=O)NC7=O)c(F)c6)CC5)CC4)cc3)CC2)CN1c1ccc(C#N)c(Cl)c1 (stereo partly shown) , tested on LNCaP cells?
60

Could you share what Emax was measured for C[C@H]1CC2(CCN(c3ccc(C(=O)N4CC(CN5CCC(c6cccc(NC7CCC(=O)NC7=O)c6)CC5)C4)nn3)CC2)CN1c1ccc(C#N)c(Cl)c1 (stereo partly shown) , tested on LNCaP cells?
60

Could you share what Emax was measured for Cc1c(N2CCC3(CCN(c4ccc(C(=O)N5CCC(CN6CCN(c7cccc(NC8CCC(=O)NC8=O)c7)CC6)CC5)cc4)CC3)C2)ccc(C#N)c1Cl (racemic) , tested on LNCaP cells?
60

Could you share what Emax was measured for `C[C@H]1CC2(CCN(c3ccc(C(=O)N4CCC5(CC4)CC(N4CCN(c6cccc(N7CCC(=O)NC7=O)c6)CC4)C5)cc3)CC2)CN1c1ccc(C#N)c(Cl)c1` , tested on LNCaP cells?
57

Could you share what Emax was measured for `C[C@H]1CC2(CCN(c3ccc(C(=O)N4CCC5(CCC(N6CCN(c7ccc(N8CCC(=O)NC8=O)cc7)CC6)CC5)CC4)cc3)CC2)CN1c1ccc(C#N)c(Cl)c1` , tested on LNCaP cells?
45

Could you share what Emax was measured for C[C@H]1CC2(CCN(c3ccc(C(=O)N4CCC(CN5CCN(c6cccc(NC7CCC(=O)NC7=O)c6)CC5)CC4)c(F)c3)CC2)CN1c1ccc(C#N)c(Cl)c1 (stereo partly shown) , tested on LNCaP cells?
70

Could you share what Emax was measured for C[C@H]1CC2(CCN(c3ccc(C(=O)N4CCC(CN5CCN(c6cccc(NC7CCC(=O)NC7=O)c6)CC5)CC4)cc3)CC2)CN1c1ccc(C#N)c(Cl)c1 (stereo partly shown) , tested on LNCaP cells?
68

Could you share what Emax was measured for C[C@H]1CC2(CCN(c3ccc(C(=O)N4CCC(CN5CCN(c6ccc(C(=O)NC7CCC(=O)NC7=O)nc6)CC5)CC4)cc3)CC2)CN1c1ccc(C#N)c(Cl)c1 (stereo partly shown) , tested on LNCaP cells?
58

Could you share what Emax was measured for `C[C@H]1CC2(CCN(c3ccc(C(=O)N4CCC5(CC4)CC(N4CCN(c6ccc(N7CCC(=O)NC7=O)cc6)CC4)C5)cc3F)CC2)CN1c1ccc(C#N)c(Cl)c1` , tested on LNCaP cells?
52

Could you share what Emax was measured for C[C@H]1CC2(CCN(c3ccc(C(=O)N4CC(CN5CCN(c6cccc(NC7CCC(=O)NC7=O)c6)CC5)C4)cc3)CC2)CN1c1ccc(C#N)c(Cl)c1 (stereo partly shown) , tested on LNCaP cells?
69

Could you share what Emax was measured for C[C@H]1CC2(CCN(C(=O)c3ccc(SC4CCN(C5CN(c6ccc(C(=O)NC7CCC(=O)NC7=O)c(F)c6)C5)CC4)nc3)CC2)CN1c1ccc(C#N)c(Cl)c1 (stereo partly shown) , tested on LNCaP cells?
72

Could you share what Emax was measured for C[C@H]1CC2(CCN(c3ccc(C(=O)N4CCN(CC5CCN(c6cccc(NC7CCC(=O)NC7=O)c6)CC5)CC4)cc3)CC2)CN1c1ccc(C#N)c(Cl)c1 (stereo partly shown) , tested on LNCaP cells?
73

Could you share what Emax was measured for `C[C@H]1CC2(CCN(c3ccc(C(=O)N4CCC5(CC4)CC(N4CCN(c6ccc(N7CCC(=O)NC7=O)cc6)CC4)C5)nc3)CC2)CN1c1ccc(C#N)c(Cl)c1` , tested on LNCaP cells?
63

Could you share what Emax was measured for `C[C@H]1CC2(CCN(c3ccc(C(=O)N4CCC5(CC4)CC(N4CCN(c6ccc(N7CCC(=O)NC7=O)cc6)CC4)C5)cc3)CC2)CN1c1ccc(C#N)c(Cl)c1` , tested on LNCaP cells?
61

Could you share what Emax was measured for C[C@H]1CC2(CCN(c3ccc(C(=O)N4CCC(CN5CCC(c6cccc(NC7CCC(=O)NC7=O)c6)CC5)CC4)cc3)CC2)CN1c1ccc(C#N)c(Cl)c1 (stereo partly shown) , tested on LNCaP cells?
68

Could you share what Emax was measured for C[C@H]1CC2(CCN(c3ccc(C(=O)N4CCC(CN5CCN(c6ccc(NC7CCC(=O)NC7=O)cc6)CC5)CC4)cc3)CC2)CN1c1ccc(C#N)c(Cl)c1 (stereo partly shown) , tested on LNCaP cells?
60

Could you share what Emax was measured for C[C@H]1CC2(CCN(c3ccc(C(=O)N4CCC5(CC4)CC(N4CCN(c6ccc(C7CCC(=O)NC7=O)cc6)CC4)C5)cc3)CC2)CN1c1ccc(C#N)c(Cl)c1 (stereo partly shown) , tested on LNCaP cells?
60
